Data origin, for the record: ChEMBL document CHEMBL1142640

Quick reference: mortality at 48 h, 0.5 mg/mL of the listed items.
test: Toxicity in Artemia salina at 0.5 mg/mL after 48 hrs; type: organism-based; conditions: in vivo, read-out: Activity
Write the answer as a number in %, unit excluded.

// worked examples, mortality at 48 h, 0.5 mg/mL included
CC1(C)O[C@](C)([C@H]2CC[C@](C)(Cl)[C@@H](Br)C2)CC[C@H]1Br | 40
C[C@]1(/C=C/Cl)C[C@](Cl)(CBr)[C@@H](Br)C[C@H]1Cl | 100
C[C@@]1(Cl)C[C@@](C)(Br)[C@H](/C=C/Cl)C[C@@H]1Br | 90

Tell me mortality at 48 h, 0.5 mg/mL reported for `C=C1C[C@@H](O)[C@@H](Br)C(C)(C)[C@]12CC[C@@](C)(Br)[C@H](Cl)C2` 80

Tell me mortality at 48 h, 0.5 mg/mL reported for `CC1(C)O[C@](C)([C@H]2CC[C@](C)(Cl)[C@@H](Br)C2)[C@H](O)C[C@H]1Br` 70
